Measured target: Renin (Homo sapiens)
Sequence (P00797 whole entry): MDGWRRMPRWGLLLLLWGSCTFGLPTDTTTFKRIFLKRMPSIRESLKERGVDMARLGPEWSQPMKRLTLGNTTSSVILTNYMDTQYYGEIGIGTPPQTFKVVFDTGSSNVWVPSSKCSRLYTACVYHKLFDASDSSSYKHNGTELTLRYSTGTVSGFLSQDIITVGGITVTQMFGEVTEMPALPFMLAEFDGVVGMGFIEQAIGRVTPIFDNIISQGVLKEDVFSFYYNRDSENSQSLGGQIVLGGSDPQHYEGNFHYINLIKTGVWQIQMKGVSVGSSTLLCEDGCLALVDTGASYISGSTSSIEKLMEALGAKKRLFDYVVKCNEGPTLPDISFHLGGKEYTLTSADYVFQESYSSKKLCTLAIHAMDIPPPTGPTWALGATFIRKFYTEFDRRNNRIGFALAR
Assay details: Inhibitory concentration against human plasma renin at pH 7.4
Assay type: cell-free
Attribute measured: IC50

Req: # input compound: `COCCOCOCCN(C)C(=O)C[C@@H](Cc1ccccc1)C(=O)N[C@@H](Cc1c[nH]cn1)C(=O)N[C@@H](CC1CCCCC1)[C@@H](O)[C@@H](O)CC(C)C` ; wanted: its IC50
Resp: 0.8 nM

More entries:
Req: # input compound: `CC(C)C[C@H](O)[C@H](O)[C@H](CC1CCCCC1)NC(=O)[C@H](Cc1cscn1)NC(=O)[C@@H](CC(=O)N(C)CCN1CCOCC1)Cc1ccccc1` ; wanted: its IC50
Resp: 4.1 nM

Req: Thanks! And `CC(C)C[C@H](O)[C@H](O)[C@H](CC1CCCCC1)NC(=O)[C@H](Cc1cscn1)NC(=O)[C@@H](CC(=O)N(C)CCc1ccncc1)Cc1ccccc1` ?
Resp: 3 nM

Req: Thanks! And `CC(C)C[C@H](O)[C@H](O)[C@H](CC1CCCCC1)NC(=O)[C@H](Cc1cscn1)NC(=O)[C@@H](CC(=O)N(C)CCN(C)C)Cc1ccccc1` ?
Resp: 9.4 nM

* * *

Measured target: UniProt:P08424
Sequence (P08424 whole entry): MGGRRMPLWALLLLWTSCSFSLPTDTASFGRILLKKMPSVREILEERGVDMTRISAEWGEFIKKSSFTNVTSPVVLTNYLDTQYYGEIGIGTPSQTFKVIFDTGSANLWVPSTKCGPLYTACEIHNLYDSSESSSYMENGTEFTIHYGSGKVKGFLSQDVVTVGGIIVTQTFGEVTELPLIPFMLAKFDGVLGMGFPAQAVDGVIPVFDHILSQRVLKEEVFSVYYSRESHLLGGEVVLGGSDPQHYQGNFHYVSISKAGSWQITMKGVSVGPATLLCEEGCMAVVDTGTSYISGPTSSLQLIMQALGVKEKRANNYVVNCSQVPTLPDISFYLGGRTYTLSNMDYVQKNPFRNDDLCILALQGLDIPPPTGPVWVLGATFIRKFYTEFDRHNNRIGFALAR
Assay details: In vitro inhibitory concentration against rat plasma renin at pH 7.4
Attribute measured: IC50

Req: # input molecule: `CC(C)C[C@H](O)[C@H](O)[C@H](CC1CCCCC1)NC(=O)[C@H](Cc1cscn1)NC(=O)[C@@H](CC(=O)N(C)CCc1ccccn1)Cc1ccccc1` ; wanted: its IC50
Resp: > 10 µM

* * *

Assay details: Bioavailability in the systemic circulation after 30 minutes was determined after intraduodenal dose of 10 mg/kg in rat by HPLC method
Assay type: ADME, organism-based
Measurement conditions: plasma (systemic circulation), read-out: Plasma level
Some compounds, each annotated with its measured concentration at 0.5 h.

Here are 5 compounds together with their reported answers.
Req: # input compound: `CC(C)C[C@H](O)[C@H](O)[C@H](CC1CCCCC1)NC(=O)[C@H](Cc1cscn1)NC(=O)[C@@H](CC(=O)N(C)CCn1ccnc1)Cc1ccccc1` ; wanted: its concentration at 0.5 h
Resp: 190 ng/mL

Req: Thanks! And `CC(C)C[C@H](O)[C@H](O)[C@H](CC1CCCCC1)NC(=O)[C@H](Cc1cscn1)NC(=O)[C@H](Cc1ccccc1)CS(=O)(=O)C1CN(C)C1` ?
Resp: 550 ng/mL

Req: Thanks! And `CC(C)C[C@H](O)[C@H](O)[C@H](CC1CCCCC1)NC(=O)[C@H](Cc1cscn1)NC(=O)[C@@H](CC(=O)N(C)CCCN(C)C)Cc1ccccc1` ?
Resp: 47 ng/mL

Req: Thanks! And `COCCN(C)C(=O)C[C@@H](Cc1ccccc1)C(=O)N[C@@H](Cc1cscn1)C(=O)N[C@@H](CC1CCCCC1)[C@@H](O)[C@@H](O)CC(C)C` ?
Resp: 33 ng/mL

Req: Thanks! And `CC(C)C[C@H](O)[C@H](O)[C@H](CC1CCCCC1)NC(=O)[C@H](Cn1cccn1)NC(=O)[C@@H](CC(=O)N(C)CCc1ccccn1)Cc1ccccc1` ?
Resp: 300 ng/mL

More entries:
Req: # input compound: `CC(C)C[C@H](O)[C@H](O)[C@H](CC1CCCCC1)NC(=O)[C@H](Cc1cscn1)NC(=O)[C@@H](CC(=O)N(C)CCc1ccncc1)Cc1ccccc1` ; wanted: its concentration at 0.5 h
Resp: 190 ng/mL

Req: Thanks! And `CC(C)C[C@H](O)[C@H](O)[C@H](CC1CCCCC1)NC(=O)[C@H](Cc1cscn1)NC(=O)[C@@H](CC(=O)N(C)CCn1cccn1)Cc1ccccc1` ?
Resp: 230 ng/mL

Req: Thanks! And `COCCOCOCCN(C)C(=O)C[C@@H](Cc1ccccc1)C(=O)N[C@@H](Cc1c[nH]cn1)C(=O)N[C@@H](CC1CCCCC1)[C@@H](O)[C@@H](O)CC(C)C` ?
Resp: 50 ng/mL
